system: Sialic acid-binding Ig-like lectin 9 (Homo sapiens) (UniProt Q9Y336)
Sequence (Q9Y336 whole entry): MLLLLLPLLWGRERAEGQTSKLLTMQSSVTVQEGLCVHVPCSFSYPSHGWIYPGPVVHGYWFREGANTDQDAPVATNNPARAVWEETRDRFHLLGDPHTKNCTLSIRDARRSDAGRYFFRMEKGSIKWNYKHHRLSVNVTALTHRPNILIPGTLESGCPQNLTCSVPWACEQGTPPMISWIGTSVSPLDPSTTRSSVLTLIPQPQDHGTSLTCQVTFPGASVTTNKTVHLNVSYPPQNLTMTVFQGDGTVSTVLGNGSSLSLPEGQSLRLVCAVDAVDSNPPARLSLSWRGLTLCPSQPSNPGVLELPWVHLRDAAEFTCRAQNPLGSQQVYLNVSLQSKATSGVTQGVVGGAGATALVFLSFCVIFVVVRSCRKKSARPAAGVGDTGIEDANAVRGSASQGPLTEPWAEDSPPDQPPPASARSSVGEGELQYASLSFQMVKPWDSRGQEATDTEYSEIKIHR
assayOverview: Hs-Siglec9 ALPHAscreen SOP 20170721
Set-up: scale not given: direction of the effect not stated beside the values
conditionContext: 10 µM
# Percent Effect values compiled below
Quick reminder: number only, in %, skip the unit.

Some compounds with known Percent Effect results, for comparison:
compound	system	observedMeasurement
COC(=O)c1ccc2ccn(CC3CCCO3)c(=O)c2c1 (stereo unspecified)	Sialic acid-binding Ig-like lectin 9 (Homo sapiens) (UniProt Q9Y336)	5.25
Cc1cc(CC(=O)N(CC2CN(C)CCO2)c2nccs2)no1 (stereo unspecified)	Sialic acid-binding Ig-like lectin 9 (Homo sapiens) (UniProt Q9Y336)	6.8
O=C(NCC1OCCc2cn(CC3CC3)nc21)c1ccsc1 (stereo unspecified)	Sialic acid-binding Ig-like lectin 9 (Homo sapiens) (UniProt Q9Y336)	-1.55
CN(Cc1ccco1)[C@@H]1CN(C(=O)c2ccnnc2)[C@@H]2CCCO[C@H]12	Sialic acid-binding Ig-like lectin 9 (Homo sapiens) (UniProt Q9Y336)	19.2
COCC1CN(Cc2ccc(C)o2)Cc2nnn(CC3CC3)c21 (stereo unspecified)	Sialic acid-binding Ig-like lectin 9 (Homo sapiens) (UniProt Q9Y336)	2.36

Query: What value of Percent Effect has been recorded for this entry: O=C(CCc1nccs1)N1CCN(c2ccc(Br)cn2)CC1
Reply: -8.09

Query: # get_value(readout='Percent Effect', item= COc1nc2c(cc1C(=O)N1C[C@H](N)C[C@H]1C(=O)NC(C)C)CCC2 )
Reply: 9.06

Query: Find the recorded Percent Effect belonging to CS(=O)(=O)NCC1CCCN(C(=O)Nc2cccnc2N2CCCC2)C1 (stereo unspecified) and report it.
Reply: -7.09

Query: Fill in: Percent Effect of c1csc(-c2nc(CNC3CCc4ncnn4C3)co2)c1 (stereo unspecified) is ___
Reply: 1.84

Query: Can you share its Percent Effect? I mean this compound: O=C(NCCCn1cncn1)NCC(c1ccco1)N1CCCCC1 (stereo unspecified)
Reply: -12.8

Query: Entry under review: CC(C)n1ccnc1C1CCCN(c2ccnc3ccccc23)C1 (stereo unspecified) . Reported Percent Effect?
Reply: 2
